Target: T1, 14-3-3β/α, full length, N-terminally His6-tagged (human, UniProt P31946 1-246)
T1 chain: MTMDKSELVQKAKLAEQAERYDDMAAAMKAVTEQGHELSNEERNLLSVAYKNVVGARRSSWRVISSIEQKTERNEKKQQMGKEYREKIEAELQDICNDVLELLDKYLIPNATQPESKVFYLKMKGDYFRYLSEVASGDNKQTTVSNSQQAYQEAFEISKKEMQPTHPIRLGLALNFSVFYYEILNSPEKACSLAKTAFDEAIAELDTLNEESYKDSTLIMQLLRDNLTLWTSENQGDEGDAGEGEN
Assay: FP
pKd: −log10 of the molar value. Primed or numbered codes have the meaning given here. Where no end group is shown, it is not given here. [ ]: non-standard residue; d: D form. The star is where a group is joined. PEG2′ = short PEG linker placed between the N-terminal FITC label and the peptide; FITC = O=C1OC2(c3ccc(O)cc3Oc3cc(O)ccc32)c2ccc(NC(=S)*)cc21; pS = N[C@@H](COP(=O)(O)O)C(=O)O
quantity_name: pKd

binder | pKd
{FITC-PEG2′}-EKNKNAN[pS]SPVASTTPSASATTNPASATTLDQSKAWNR (also: second phosphorylated Ser/Thr, site not given here) [fluorescently labeled peptide 8, APN 36–73, bis-phosphorylated] | 4.49

a. {FITC-PEG2′}-EKNKNAN[pS]SPVASTTPSASATTNPASATTLDQSKAWNR (also: second phosphorylated Ser/Thr, site not given here) [fluorescently labeled peptide 9, APN 36–73, bis-phosphorylated]
b. {FITC-PEG2′}-EKNKNAN[pS]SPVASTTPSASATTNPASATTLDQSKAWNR (also: second phosphorylation within Ser61–Thr64, site not given here) [fluorescently labeled peptide 12, APN 36–73, bis-phosphorylated]
Enquiry: I'm curious, which of these has a smaller pKd number: a or b ? Kindly state the label of the option you pick.
Return: a
(a: 4.64, b: 6.35)
